These entries and their values trace back to patent US20240294541A1.

- Tested on: MV-4-11 (human biphenotypic leukaemia)
- TEST SUMMARY: In vitro cytotoxicity, MTT assay, MV-4-11
- Type: cell-based
This section presents compounds with their documented SI MV4-11 values.
Form: value (number only, do not type unit).

The cases that follow already have their SI MV4-11 on record.
[[record]]
structure_notation = "CC[C@@H](C(=O)[C@@H](C)[C@@H](O)[C@H](C)[C@@H]1O[C@@H]([C@@H](CC)C(=O)O)CC[C@@H]1C)[C@H]1O[C@]2(C=C[C@@H](NC(=O)NCC3CCC(F)(F)CC3)[C@]3(CC[C@@](C)([C@H]4CC[C@](O)(CC)[C@H](C)O4)O3)O2)[C@H](C)C[C@@H]1C"
target_of_assay = "MV-4-11 (human biphenotypic leukaemia)"
val = 62.8

[[record]]
structure_notation = "CC[C@@H](C(=O)[C@@H](C)[C@@H](O)[C@H](C)[C@@H]1O[C@@H]([C@@H](CC)C(=O)O)CC[C@@H]1C)[C@H]1O[C@]2(C=C[C@@H](NC(=O)OCCOCCCl)[C@]3(CC[C@@](C)([C@H]4CC[C@](O)(CC)[C@H](C)O4)O3)O2)[C@H](C)C[C@@H]1C"
target_of_assay = "MV-4-11 (human biphenotypic leukaemia)"
val = 17.8


As a next step, examine the compound that follows.
Query (compound): CC[C@@H](C(=O)[C@@H](C)[C@@H](O)[C@H](C)[C@@H]1O[C@@H]([C@@H](CC)C(=O)O)CC[C@@H]1C)[C@H]1O[C@]2(C=C[C@@H](NC(=O)CC(C)(C)C)[C@]3(CC[C@@](C)([C@H]4CC[C@](O)(CC)[C@H](C)O4)O3)O2)[C@H](C)C[C@@H]1C ; field requested: SI MV4-11
42.4

---

- Test system: MV-4-11 (human biphenotypic leukaemia)
- TEST SUMMARY: In vitro cytotoxicity, MTT assay, MV-4-11
- Format: cell-based
ASSAY METRIC: SI MV4-11

The cases that follow already have their SI MV4-11 on record.
[[record]]
structure_notation = "CC[C@@H](C(=O)[C@@H](C)[C@@H](O)[C@H](C)[C@@H]1O[C@@H]([C@@H](CC)C(=O)O)CC[C@@H]1C)[C@H]1O[C@]2(C=C[C@@H](NC(=O)C(=O)NCc3ccncc3)[C@]3(CC[C@@](C)([C@H]4CC[C@](O)(CC)[C@H](C)O4)O3)O2)[C@H](C)C[C@@H]1C"
target_of_assay = "MV-4-11 (human biphenotypic leukaemia)"
assay_metric = "SI MV4-11"
val = 14.6

[[record]]
structure_notation = "CC[C@@H](C(=O)[C@@H](C)[C@@H](O)[C@H](C)[C@@H]1O[C@@H]([C@@H](CC)C(=O)O)CC[C@@H]1C)[C@H]1O[C@]2(C=C[C@@H](NC(=O)OCCOC)[C@]3(CC[C@@](C)([C@H]4CC[C@](O)(CC)[C@H](C)O4)O3)O2)[C@H](C)C[C@@H]1C"
target_of_assay = "MV-4-11 (human biphenotypic leukaemia)"
assay_metric = "SI MV4-11"
val = 31.8


Consider the record given below.
I have this compound here, CC[C@@H](C(=O)[C@@H](C)[C@@H](O)[C@H](C)[C@@H]1O[C@@H]([C@@H](CC)C(=O)O)CC[C@@H]1C)[C@H]1O[C@]2(C=C[C@@H](NC(=O)OCCCN(C)C)[C@]3(CC[C@@](C)([C@H]4CC[C@](O)(CC)[C@H](C)O4)O3)O2)[C@H](C)C[C@@H]1C , and I need its recorded SI MV4-11.
3.2

---

- Tested on: KG-1 (human acute myeloid leukaemia)
- TEST SUMMARY: In vitro cytotoxicity, MTT assay, KG-1
- Assay type: cell-based
- TEST CONTEXT: Homo sapiens; 72 h with compound, MTT; n/a = non-active compound
Overview of recorded pIC50 for various compounds
When answering, recall that pIC50 equals minus log10 of the concentration in mol/L, and write that number alone.

Completed entries (count: 10):
[[record]]
structure_notation = "CC[C@@H](C(=O)[C@@H](C)[C@@H](O)[C@H](C)[C@@H]1O[C@@H]([C@@H](CC)C(=O)O)CC[C@@H]1C)[C@H]1O[C@]2(C=C[C@@H](NC(=O)Nc3ccccc3C(F)(F)F)[C@]3(CC[C@@](C)([C@H]4CC[C@](O)(CC)[C@H](C)O4)O3)O2)[C@H](C)C[C@@H]1C"
target_of_assay = "KG-1 (human acute myeloid leukaemia)"
assay_metric = "pIC50"
val = 7.44

[[record]]
structure_notation = "CC[C@@H](C(=O)[C@@H](C)[C@@H](O)[C@H](C)[C@@H]1O[C@@H]([C@@H](CC)C(=O)O)CC[C@@H]1C)[C@H]1O[C@]2(C=C[C@@H](NC(=S)Nc3ccc(Cl)cc3)[C@]3(CC[C@@](C)([C@H]4CC[C@](O)(CC)[C@H](C)O4)O3)O2)[C@H](C)C[C@@H]1C"
target_of_assay = "KG-1 (human acute myeloid leukaemia)"
assay_metric = "pIC50"
val = 7.72

[[record]]
structure_notation = "CCCCNC(=S)N[C@@H]1C=C[C@]2(O[C@H]([C@@H](CC)C(=O)[C@@H](C)[C@@H](O)[C@H](C)[C@@H]3O[C@@H]([C@@H](CC)C(=O)O)CC[C@@H]3C)[C@@H](C)C[C@H]2C)O[C@@]12CC[C@@](C)([C@H]1CC[C@](O)(CC)[C@H](C)O1)O2"
target_of_assay = "KG-1 (human acute myeloid leukaemia)"
assay_metric = "pIC50"
val = 7.55

[[record]]
structure_notation = "CC[C@@H](C(=O)[C@@H](C)[C@@H](O)[C@H](C)[C@@H]1O[C@@H]([C@@H](CC)C(=O)O)CC[C@@H]1C)[C@H]1O[C@]2(C=C[C@@H](NC(=O)Nc3ccccc3)[C@]3(CC[C@@](C)([C@H]4CC[C@](O)(CC)[C@H](C)O4)O3)O2)[C@H](C)C[C@@H]1C"
target_of_assay = "KG-1 (human acute myeloid leukaemia)"
assay_metric = "pIC50"
val = 7.90

[[record]]
structure_notation = "CC[C@@H](C(=O)[C@@H](C)[C@@H](O)[C@H](C)[C@@H]1O[C@@H]([C@@H](CC)C(=O)O)CC[C@@H]1C)[C@H]1O[C@]2(C=C[C@@H](NC(=O)NC(=O)C(Cl)(Cl)Cl)[C@]3(CC[C@@](C)([C@H]4CC[C@](O)(CC)[C@H](C)O4)O3)O2)[C@H](C)C[C@@H]1C"
target_of_assay = "KG-1 (human acute myeloid leukaemia)"
assay_metric = "pIC50"
val = 6.18

[[record]]
structure_notation = "CC[C@@H](C(=O)[C@@H](C)[C@@H](O)[C@H](C)[C@@H]1O[C@@H]([C@@H](CC)C(=O)O)CC[C@@H]1C)[C@H]1O[C@]2(C=C[C@@H](NC(=S)Nc3cc(C(F)(F)F)cc(C(F)(F)F)c3)[C@]3(CC[C@@](C)([C@H]4CC[C@](O)(CC)[C@H](C)O4)O3)O2)[C@H](C)C[C@@H]1C"
target_of_assay = "KG-1 (human acute myeloid leukaemia)"
assay_metric = "pIC50"
val = 6.73

[[record]]
structure_notation = "CC[C@@H](C(=O)[C@@H](C)[C@@H](O)[C@H](C)[C@@H]1O[C@@H]([C@@H](CC)C(=O)O)CC[C@@H]1C)[C@H]1O[C@]2(C=C[C@@H](NC(=O)NC3CCCC3)[C@]3(CC[C@@](C)([C@H]4CC[C@](O)(CC)[C@H](C)O4)O3)O2)[C@H](C)C[C@@H]1C"
target_of_assay = "KG-1 (human acute myeloid leukaemia)"
assay_metric = "pIC50"
val = 7.63

[[record]]
structure_notation = "CC[C@@H](C(=O)[C@@H](C)[C@@H](O)[C@H](C)[C@@H]1O[C@@H]([C@@H](CC)C(=O)O)CC[C@@H]1C)[C@H]1O[C@]2(C=C[C@@H](NC(=S)Nc3ccc(C)cc3)[C@]3(CC[C@@](C)([C@H]4CC[C@](O)(CC)[C@H](C)O4)O3)O2)[C@H](C)C[C@@H]1C"
target_of_assay = "KG-1 (human acute myeloid leukaemia)"
assay_metric = "pIC50"
val = 8.01

[[record]]
structure_notation = "CC[C@@H](C(=O)[C@@H](C)[C@@H](O)[C@H](C)[C@@H]1O[C@@H]([C@@H](CC)C(=O)O)CC[C@@H]1C)[C@H]1O[C@]2(C=C[C@@H](NC(=S)NC3CCCCC3)[C@]3(CC[C@@](C)([C@H]4CC[C@](O)(CC)[C@H](C)O4)O3)O2)[C@H](C)C[C@@H]1C"
target_of_assay = "KG-1 (human acute myeloid leukaemia)"
assay_metric = "pIC50"
val = 7.74

[[record]]
structure_notation = "CCCCCCCCNC(=O)N[C@@H]1C=C[C@]2(O[C@H]([C@@H](CC)C(=O)[C@@H](C)[C@@H](O)[C@H](C)[C@@H]3O[C@@H]([C@@H](CC)C(=O)O)CC[C@@H]3C)[C@@H](C)C[C@H]2C)O[C@@]12CC[C@@](C)([C@H]1CC[C@](O)(CC)[C@H](C)O1)O2"
target_of_assay = "KG-1 (human acute myeloid leukaemia)"
assay_metric = "pIC50"
val = 7.39


Please give the measured pIC50 for this compound: CCOC(=O)CNC(=S)N[C@@H]1C=C[C@]2(O[C@H]([C@@H](CC)C(=O)[C@@H](C)[C@@H](O)[C@H](C)[C@@H]3O[C@@H]([C@@H](CC)C(=O)O)CC[C@@H]3C)[C@@H](C)C[C@H]2C)O[C@@]12CC[C@@](C)([C@H]1CC[C@](O)(CC)[C@H](C)O1)O2
7.52

Which pIC50 reading was recorded for the compound CC[C@@H](C(=O)[C@@H](C)[C@@H](O)[C@H](C)[C@@H]1O[C@@H]([C@@H](CC)C(=O)O)CC[C@@H]1C)[C@H]1O[C@]2(C=C[C@@H](NC(=S)Nc3ccc(C(F)(F)F)cc3)[C@]3(CC[C@@](C)([C@H]4CC[C@](O)(CC)[C@H](C)O4)O3)O2)[C@H](C)C[C@@H]1C ?
7.85

Return reported pIC50; argument: C=CCNC(=O)N[C@@H]1C=C[C@]2(O[C@H]([C@@H](CC)C(=O)[C@@H](C)[C@@H](O)[C@H](C)[C@@H]3O[C@@H]([C@@H](CC)C(=O)O)CC[C@@H]3C)[C@@H](C)C[C@H]2C)O[C@@]12CC[C@@](C)([C@H]1CC[C@](O)(CC)[C@H](C)O1)O2
7.46
